Assay: Pharmacokinetics and relative bioavailability after a single oral dose (two liquid formulations, powder in capsule)
Type: in vivo, male Beagle dogs
Conditions: male, Beagle, dog, plasma, po, 2 mg/kg, Formulation #1 (Table 43), 2 mg/kg oral, male Beagle dogs, Mean
observed-property: half-life (h)
Report the figure in h without appending any unit label.

Exercise: Can you share its half-life? I mean this compound: COc1cc(Nc2nccc(Nc3cccnc3-c3ccccn3)n2)ccc1N1CCN(C)CC1
Key: 5.6

---

Test: Pharmacokinetic and tissue distribution study
Format: in vivo, CD-1 male mice
Conditions: male, CD-1, mouse; mice, 20 mg/kg PO; bladder
Protocol: An additional pharmacokinetic and tissue distribution study was conducted to comprehensively evaluate Compound 2 exposure in multiple mouse organs. CD-1 male mice were dosed 20 mg/kg, PO with Compound 2 formulated in 20% solutol and 80% saline. Plasma and organs were collected at nine (9) time points and the drug concentrations were determined by LC-MS/MS. […] The results confirmed exposure in clinically relevant target organs, including brain and liver (Table 7).
observed-property: Cmax
State the result as a value with its unit after it.

Exercise: Requested field: Cmax. Item: COc1cc(Nc2nccc(Nc3cccnc3-c3ccccn3)n2)ccc1N1CCN(C)CC1 [Compound 2]
Key: 2220 ng/g

---

Test: Pharmacokinetics and relative bioavailability after a single oral dose (two liquid formulations, powder in capsule)
Assay type: in vivo, male Beagle dogs
Details: male, Beagle, dog, plasma, po, 5 mg/kg, Formulation #1 (Table 43), 5 mg/kg oral, male Beagle dogs, Mean
observed-property: AUC(0-inf) (ng·h/mL)
Number only, in ng·h/mL; omit the unit.

Exercise: Bench note: what AUC(0-inf) did COc1cc(Nc2nccc(Nc3cccnc3-c3ccccn3)n2)ccc1N1CCN(C)CC1 [Compound 2] show?
Key: 294

---

Test: Kinetic solubility in pH 2, 5 and 7 buffers at RT
Format: physicochemical
Conditions: 19 °C, aqueous buffer, thermodynamic from solid; pH 2 buffer, 1 hr, RT; read-out: S: solubility
observed-property: solubility at 1 h
Please state the value followed by its unit.

Exercise: I am curious: what solubility at 1 h value has been reported for COc1cc(Nc2nccc(Nc3cccnc3-c3ccccn3)n2)ccc1N1CCN(C)CC1 [Freebase Form A] ?
Key: 4300 µg/mL

---

Test: Pharmacokinetics and relative bioavailability after a single oral dose (two liquid formulations, powder in capsule)
Format: in vivo, male Beagle dogs
Settings: male, Beagle, dog, plasma, po, 2 mg/kg, 2 mg/kg oral, range across Formulation #1, #2 and powder in capsules; read-out: mean Cmax
observed-property: Cmax

Exercise: Reported Cmax for COc1cc(Nc2nccc(Nc3cccnc3-c3ccccn3)n2)ccc1N1CCN(C)CC1 [Compound 2] : what is it?
Key: 6.78 to 14.9 ng/mL

---

Target: ACVR1 R258G (Homo sapiens, UniProt Q04771, R258G)
Sequence (Q04771 21-509 R258G): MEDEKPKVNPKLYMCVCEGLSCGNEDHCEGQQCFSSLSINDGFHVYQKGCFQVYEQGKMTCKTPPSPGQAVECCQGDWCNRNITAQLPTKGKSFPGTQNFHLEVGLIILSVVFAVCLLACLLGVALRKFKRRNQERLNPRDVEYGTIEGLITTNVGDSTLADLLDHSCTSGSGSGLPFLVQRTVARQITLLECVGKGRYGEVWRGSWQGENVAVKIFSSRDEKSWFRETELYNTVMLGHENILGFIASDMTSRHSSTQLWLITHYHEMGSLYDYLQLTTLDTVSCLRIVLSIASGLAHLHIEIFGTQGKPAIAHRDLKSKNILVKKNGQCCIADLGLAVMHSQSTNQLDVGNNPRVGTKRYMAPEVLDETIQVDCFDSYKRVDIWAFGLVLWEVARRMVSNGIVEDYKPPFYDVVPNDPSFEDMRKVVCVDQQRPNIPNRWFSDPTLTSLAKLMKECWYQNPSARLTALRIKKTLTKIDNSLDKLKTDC
Assay: ACVR1 kinase assay, casein substrate, 33P-ATP, filter binding
Settings: 10 μM ATP
observed-property: IC50 (nM)
Just the number please, in nM, no unit attached.

Exercise: Which value of IC50 has been reported for COc1cc(Nc2nccc(Nc3cccnc3-c3ccccn3)n2)ccc1N1CCN(C)CC1 in the records?
Key: 51.6

---

Test: Preliminary brain PK study
Type: in vivo
Conditions: mouse, mice, brain tissue, Table 4, route and dose not given
observed-property: Cmax (ng/g)
A number alone suffices; assume ng/g.

Exercise: Name the reported Cmax value associated with the molecule COc1cc(Nc2nccc(Nc3cccnc3-c3ccccn3)n2)ccc1N1CCN(C)CC1 [Compound 2]
Key: 691
